# tgt: Cytochrome P450 2C8 (Homo sapiens, UniProt P10632)
# Sequence (P10632 whole entry): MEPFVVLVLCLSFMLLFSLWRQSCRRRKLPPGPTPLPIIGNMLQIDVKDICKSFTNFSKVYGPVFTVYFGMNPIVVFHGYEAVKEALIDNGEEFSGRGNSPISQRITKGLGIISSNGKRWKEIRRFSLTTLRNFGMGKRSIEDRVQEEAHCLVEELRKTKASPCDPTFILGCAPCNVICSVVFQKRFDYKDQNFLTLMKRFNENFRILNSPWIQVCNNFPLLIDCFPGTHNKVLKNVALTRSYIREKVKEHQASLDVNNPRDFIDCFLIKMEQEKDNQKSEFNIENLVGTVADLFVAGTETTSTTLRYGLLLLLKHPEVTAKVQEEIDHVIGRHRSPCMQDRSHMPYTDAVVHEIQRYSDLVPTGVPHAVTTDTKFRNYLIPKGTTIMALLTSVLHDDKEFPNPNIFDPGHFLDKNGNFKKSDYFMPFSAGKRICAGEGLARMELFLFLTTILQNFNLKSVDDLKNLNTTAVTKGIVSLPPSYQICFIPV
# experimentalProtocol: Inhibition of human recombinant CYP2C8
valueKind: IC50

querysmiles=CCCc1ccc(C(=O)CCCN2CCC(C(O)(c3ccccc3)c3ccccc3)CC2)cc1 readoutvalue="> 100 µM"

# evaluate next
Q: // returns reported IC50 for input C=CCc1ccc(C(=O)CCCN2CCC(C(O)(c3ccccc3)c3ccccc3)CC2)cc1
Ans: > 100 µM
